- procedure-summary: Selnoflast plasma pharmacokinetics in UC patients (LC‐MS/MS, non‐compartmental)
- Type: in vivo, human
- assay-conditions: human, plasma, oral, 450 mg, UC patients in the present study; read-out: Median Tmax

molecule: CCN1CCC(S(=O)(=O)NC(=O)Nc2c3c(cc4c2CCC4)CCC3)CC1 [Selnoflast, selnoflast]
Tmax: 1 to 2 h

###

- procedure-summary: Selnoflast plasma pharmacokinetics in UC patients (LC‐MS/MS, non‐compartmental)
- Assay type: in vivo, human
- assay-conditions: human, plasma, po, 450 mg, 450 mg QD oral, fasted, UC patients N = 13, Day 1, geometric mean (CV% geo mean); read-out: AUCtau

compound: CCN1CCC(S(=O)(=O)NC(=O)Nc2c3c(cc4c2CCC4)CCC3)CC1 [Selnoflast, selnoflast]
measurement-units: µg·h/mL
AUC: 247

###

- procedure-summary: Selnoflast plasma pharmacokinetics in UC patients (LC‐MS/MS, non‐compartmental)
- Type: in vivo, human
- assay-conditions: human, plasma, po, 450 mg, 450 mg QD oral, fasted, UC patients N = 13, Day 1 (Clast, 24 h), geometric mean (CV% geo mean); read-out: Ctrough

compound: CCN1CCC(S(=O)(=O)NC(=O)Nc2c3c(cc4c2CCC4)CCC3)CC1 [Selnoflast, selnoflast]
concentration at 24 h / ng/mL: 2550

###

- procedure-summary: Selnoflast plasma pharmacokinetics in UC patients (LC‐MS/MS, non‐compartmental)
- Format: in vivo, human
- assay-conditions: human, plasma, po, 450 mg, 450 mg QD oral, fasted, UC patients N = 13, steady‐state (Day 5), geometric mean (CV% geo mean)
property-label: half-life (h)

molecule-smiles: CCN1CCC(S(=O)(=O)NC(=O)Nc2c3c(cc4c2CCC4)CCC3)CC1
property-label: half-life
measurement-units: h
endpoint-result: 6.93

###

- procedure-summary: Selnoflast plasma pharmacokinetics in UC patients (LC‐MS/MS, non‐compartmental)
- Format: in vivo, human
- assay-conditions: human, plasma, po, 450 mg, 450 mg QD oral, fasted, UC patients N = 13, Day 1, geometric mean (CV% geo mean)

molecule: CCN1CCC(S(=O)(=O)NC(=O)Nc2c3c(cc4c2CCC4)CCC3)CC1 [Selnoflast, selnoflast]
Cmax [ng/mL]: 25000

###

- procedure-summary: Selnoflast plasma pharmacokinetics in UC patients (LC‐MS/MS, non‐compartmental)
- Type: in vivo, human
- assay-conditions: human, plasma; 450 mg QD oral, fasted, UC patients N = 13, Day 1, geometric mean (CV% geo mean); read-out: Vz/F

molecule-smiles: CCN1CCC(S(=O)(=O)NC(=O)Nc2c3c(cc4c2CCC4)CCC3)CC1
Vd/F: 18.1 L

###

- procedure-summary: Selnoflast plasma pharmacokinetics in UC patients (LC‐MS/MS, non‐compartmental)
- Type: in vivo, human
- assay-conditions: human, plasma, po, 450 mg, 450 mg QD oral, fasted, UC patients N = 13, Day 1, median (range); read-out: Tmax

molecule-smiles: CCN1CCC(S(=O)(=O)NC(=O)Nc2c3c(cc4c2CCC4)CCC3)CC1
Tmax [h]: 1.97
